tested.on: Melatonin receptor type 1A (Homo sapiens)
protocol.notes: Agonist activity at human MT1 receptor expressed in HEK293 cells incubated for 1 hr by Fluo-8 dye based calcium assay
Assay type: functional, cell-based
Activity calls are given as the source filed them. The calls are words filed in the database; no cut-off is given here.
readout: Activity

C=CC(C)(C)c1[nH]c2ccccc2c1[C@H]1[C@H](c2c(C(C)(C)C=C)[nH]c3ccccc23)[C@]2(NC(=O)[C@@H](C)NC2=O)[C@@]12NC(=O)[C@@H](C)NC2=O: 11.3%
C=CC(C)(C)c1[nH]c2ccccc2c1[C@@H]1[C@@H](c2c(C(C)(C)C=C)[nH]c3ccccc23)[C@@]2(NC(=O)[C@@H](C)NC2=O)[C@]12NC(=O)[C@@H](C)NC2=O: Active
C=CC(C)(C)c1[nH]c2ccccc2c1[C@@H]1[C@@H](c2c(C(C)(C)C=C)[nH]c3ccccc23)[C@@]2(NC(=O)[C@H](C)NC2=O)[C@]12NC(=O)[C@H](C)NC2=O: Active
C=CC(C)(C)c1[nH]c2ccccc2c1[C@H]1[C@H](c2c(C(C)(C)C=C)[nH]c3ccccc23)[C@]2(NC(=O)[C@H](C)NC2=O)[C@@]12NC(=O)[C@H](C)NC2=O: Active

# credit: ChEMBL document CHEMBL4043068
